measured.on: Neutral ceramidase (Mus musculus) (UniProt Q9JHE3)
Sequence (Q9JHE3 whole entry): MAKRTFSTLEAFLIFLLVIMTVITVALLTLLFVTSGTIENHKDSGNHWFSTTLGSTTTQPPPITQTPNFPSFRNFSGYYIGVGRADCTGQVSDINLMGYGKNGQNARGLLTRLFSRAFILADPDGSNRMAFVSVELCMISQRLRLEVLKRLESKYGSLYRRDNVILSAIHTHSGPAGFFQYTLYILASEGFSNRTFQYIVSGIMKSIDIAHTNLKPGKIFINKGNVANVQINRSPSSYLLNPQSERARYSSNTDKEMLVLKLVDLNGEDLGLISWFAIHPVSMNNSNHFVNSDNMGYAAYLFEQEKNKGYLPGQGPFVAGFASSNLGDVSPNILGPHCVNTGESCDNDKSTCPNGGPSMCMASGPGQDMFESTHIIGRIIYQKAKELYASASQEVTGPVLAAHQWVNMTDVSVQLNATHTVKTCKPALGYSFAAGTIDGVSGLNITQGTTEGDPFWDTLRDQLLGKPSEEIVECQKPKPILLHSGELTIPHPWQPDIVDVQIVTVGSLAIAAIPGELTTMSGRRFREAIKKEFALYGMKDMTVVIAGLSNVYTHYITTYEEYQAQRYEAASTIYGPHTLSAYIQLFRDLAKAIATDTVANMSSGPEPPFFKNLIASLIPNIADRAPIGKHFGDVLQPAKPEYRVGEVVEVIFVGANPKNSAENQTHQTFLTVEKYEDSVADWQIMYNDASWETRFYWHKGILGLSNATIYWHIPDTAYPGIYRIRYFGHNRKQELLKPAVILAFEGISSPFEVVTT
experimental.protocol: Inhibition of ASAH2 in wild type mouse intact embryonic fibroblast using RBM14C16 fluorogenic substrate measured at pH 7.5 incubated for 3 hrs by fluorescence spectrophotometry
test.conditions: MEF
Activity calls are given as the source filed them. No cut-off for these calls is given here.
Outcomes: active, inactive

INSERT INTO measurements (compound, classification) VALUES
  ('CCCCCCCCCCCC/C=C/[C@@H](O)[C@@H](C)NC(=O)c1ccc(OCCCOCOC)cc1', 'active'),
  ('CCCCCCCCCCCC/C=C/[C@@H](O)[C@@H](C)NC(=O)CCCCCCC', 'inactive'),
  ('CCCCCCCCCCCC/C=C/[C@@H](O)[C@@H](C)NC(=O)c1ccc(OCCCCOCOC)cc1', 'active'),
  ('CCCCCCCCCCCC/C=C/[C@@H](O)[C@@H](C)NC(=O)c1ccc(CCCCCCC)cc1', 'inactive');
